# System: A549
# protocol description: NCI tumour cell line growth inhibition, 48 h
Counter-ions that a name gives are not always drawn. The source made the active and inactive calls. Rule as the data show it: active = GI50 up to about 1.1 µM and inactive = higher.
Possible outcomes: yes (1) = active, no (0) = inactive

{"compound": "O=[N+]([O-])c1ccc(Cl)c(/C=N/C23CC4CC(CC(C4)C2)C3)c1", "assay system": "A549", "class": "no (0)"}
{"compound": "COC(=O)CCCC(=O)NC1=C(NCc2ccccc2)C(=O)c2ccccc2C1=O", "assay system": "A549", "class": "no (0)"}
{"compound": "CC(C)(C)c1ccc(O)c(C[N+](C)(C)C)c1", "assay system": "A549", "class": "no (0)"}
{"compound": "COC(=O)C1=CC2C=CC(C1C(=O)OC)C1C(C(=O)OC)=C(C(=O)OC)C(C(=O)OC)=C(C(=O)OC)C21OC (configuration not stated)", "assay system": "A549", "class": "no (0)"}
{"compound": "CC1(C)C(=O)N(CCCCCCN2C(=O)C(C)(C)c3ccccc32)c2ccccc21", "assay system": "A549", "class": "no (0)"}
{"compound": "COc1cc(/C=C2\\CCC(C)C3=C2NC(=S)NC3c2cc(OC)c(OC)c(OC)c2)cc(OC)c1OC (configuration not stated)", "assay system": "A549", "class": "no (0)"}
{"compound": "OC1COC(OCc2ccccc2)C(O)C1O (configuration not stated)", "assay system": "A549", "class": "no (0)"}
{"compound": "C=C(c1ccccc1)[C@@]1(O)CCCC[C@H]1NC(c1ccccc1)c1ccccc1", "assay system": "A549", "class": "no (0)"}
{"compound": "O=C1NC(N2CCOCC2)=N/C1=C\\c1ccccc1O", "assay system": "A549", "class": "no (0)"}
{"compound": "CSc1ccc2c(c1)c(CCN)c(C)n2Cc1ccccc1Cl", "assay system": "A549", "class": "no (0)"}
{"compound": "COC(=O)C1(CCCCCBr)CCCCCCCCCCC1=O (configuration not stated)", "assay system": "A549", "class": "no (0)"}
{"compound": "CCN(CC)c1ccc2cc(C(=O)Nc3ccccc3)c(=N)oc2c1", "assay system": "A549", "class": "no (0)"}
{"compound": "CC(C)c1ccc2c(c1)C=C1OC(=O)[C@]3(C)CCC[C@@]2(C)C13 (some centres not stated)", "assay system": "A549", "class": "no (0)"}
{"compound": "COC(=O)/C(C#N)=C1\\NC(=O)CC(c2ccccc2)C1C#N (configuration not stated)", "assay system": "A549", "class": "no (0)"}
{"compound": "Cc1nc(-n2nc(-c3ccccc3)cc2-c2ccccc2)sc1C(=O)/C=C/c1ccc(Cl)c(Cl)c1", "assay system": "A549", "class": "no (0)"}
{"compound": "COC(=O)C1CC2(c3ccccc3)C(=O)c3ccccc3N2O1 (configuration not stated)", "assay system": "A549", "class": "no (0)"}
{"compound": "COc1ccc(-c2cc(N3CCN(c4ccc(Cl)cc4)CC3)c(C#N)c(=O)o2)cc1", "assay system": "A549", "class": "no (0)"}
{"compound": "O[C@@H]1CCC[C@@H]2NC[C@@H](c3ccc4c(c3)OCO4)[C@H]12", "assay system": "A549", "class": "no (0)"}
{"compound": "COc1cc(/C=C2\\CCc3ccccc3C2=O)ccc1O", "assay system": "A549", "class": "no (0)"}
{"compound": "O=C(c1ccccc1)n1[nH]c(=O)n(-c2ccc(Cl)cc2)c1=O", "assay system": "A549", "class": "no (0)"}
{"compound": "CC1COC(C)(C)P(=O)(c2ccccc2)C1 (configuration not stated)", "assay system": "A549", "class": "no (0)"}
{"compound": "CC1(C)S[C@@H]2[C@H](NC(=O)CCC[C@@H](N)C(=O)O)C(=O)N2[C@H]1C(=O)O [ADICILLIN]", "assay system": "A549", "class": "no (0)"}
{"compound": "O=C(N[C@H]1CC2(C=C(I)C(=O)C(I)=C2)OC1=O)OCc1ccccc1", "assay system": "A549", "class": "no (0)"}
{"compound": "O=C1c2c(O)cccc2-c2nn(CCNCCO)c3ccc(NCCNCCO)c1c23 [LOSOXANTRONE HYDROCHLORIDE]", "assay system": "A549", "class": "yes (1)"}
{"compound": "O=C1OC(c2ccccc2)=N/C1=C\\c1cn[nH]n1", "assay system": "A549", "class": "no (0)"}
{"compound": "CCOC(=O)CCC(=O)C1c2cccc(O)c2C(=O)c2c(O)cc(C)cc21 (configuration not stated)", "assay system": "A549", "class": "yes (1)"}
{"compound": "Cc1c(C2=NN=C(/N=N/c3c(O)cccc3O)/C2=C/c2ccccc2)c(=O)n(-c2ccccc2)n1C", "assay system": "A549", "class": "no (0)"}
{"compound": "Cc1ccc(/C=C2/N/C(=N\\N=C/C(O)C(O)C(O)C(O)CO)NC2=O)cc1 (configuration not stated)", "assay system": "A549", "class": "no (0)"}
{"compound": "CCC1(C)N=c2c(ncn2N=C(C)C)=C(C(N)=O)N1 (configuration not stated)", "assay system": "A549", "class": "no (0)"}
{"compound": "Nc1nc(N)c2c(n1)NC(c1ccccc1)CC(/C=C/c1ccc(Cl)cc1)=N2 (configuration not stated)", "assay system": "A549", "class": "no (0)"}
{"compound": "Oc1ccc(O)c(CNc2ccccc2)c1", "assay system": "A549", "class": "no (0)"}
{"compound": "Oc1ccc(CCc2cc(O)cc(O)c2)cc1 [DIHYDRORESVERATROL]", "assay system": "A549", "class": "no (0)"}
{"compound": "Cc1ccc(/C=N\\NC2c3cc(Cl)ccc3Nc3nc(O)nc(C)c32)cc1 (configuration not stated)", "assay system": "A549", "class": "no (0)"}
{"compound": "CCOC(=O)/C=C\\C(C#N)(C#N)/N=C/c1ccsc1", "assay system": "A549", "class": "no (0)"}
{"compound": "CC1=CP(=O)(OC(C)C)CC(C)=C1Cl (configuration not stated)", "assay system": "A549", "class": "no (0)"}
{"compound": "COc1ccc2nc3ccc(OC)cc3c(SCCCl)c2c1", "assay system": "A549", "class": "no (0)"}
{"compound": "N#Cc1c2c(c(Cl)n3c1nc1ccccc13)CCCC2", "assay system": "A549", "class": "no (0)"}
{"compound": "Cc1cc(Cl)ccc1NC(=O)/C(Cl)=C(/Cl)C(=O)O", "assay system": "A549", "class": "no (0)"}
{"compound": "CC(=O)c1sc2n(C)c(=O)c3ccccc3[n+]2c1C", "assay system": "A549", "class": "no (0)"}
{"compound": "CCOc1ccccc1NC(=O)CC1SC(Nc2ccc([N+](=O)[O-])cc2)=NC1=O (configuration not stated)", "assay system": "A549", "class": "no (0)"}
{"compound": "CC1(Cc2cc3c(cc2C2(c4ccc([N+](=O)[O-])cc4)OCCO2)OCO3)OCCO1", "assay system": "A549", "class": "no (0)"}
{"compound": "CC[C@]1(Cc2ccc(OC)c(OC)c2)C=[N+]([O-])O[C@H](OCc2ccccc2)[C@@H]1OC(C)=O", "assay system": "A549", "class": "no (0)"}

Every entry's value here was drawn from ChEMBL document CHEMBL1201862.
